Source listed as the supplement of paper PMC10567573.

B1: HDAC6 (parent)
chain: ACAQLATGAACRLVEAVLSGEVLN

Variants of: B1
Assay: protein stability index of a GFP-peptide fusion (GPS, HEK-293T) (PSI 1-6); higher = more stable;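 also: lentivirally expressed fusions sorted by FACS into six bins by GFP to DsRed ratio, PSI derived from sequencing read proportions per bin multiplied by bin number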
Measurement Parameters: c terminus: a fixed tail appended
Think of 2 as a floor: if protein stability index stands on it or above, it is Fulfilled; beneath it, Not fulfilled.

Input Sequence	Group
ACAQLATGAACMLVEAVLSGEVLN [R12M]	Fulfilled
ACAQLATGAACRLVEYVLSGEVLN [A16Y]	Fulfilled
ACAQLATGAACRLVEAVLSGEVKN [L23K]	Not fulfilled

Inquiry: Could you verify whether the entry ACAQLATGAACRLVEAVLSIEVLN [G20I] shows protein stability index of no less than 2?
Reply text: Fulfilled

Inquiry: Given ACAQQATGAACRLVEAVLSGEVLN [L5Q] , state whether its protein stability index is at least 2.
Reply text: Fulfilled

Inquiry: Please tell me: is the variant ACAQLATGAAARLVEAVLSGEVLN [C11A] at or over 2 in terms of protein stability index?
Reply text: Fulfilled

Inquiry: Threshold query (protein stability index >= 2) on ACAQIATGAACRLVEAVLSGEVLN [L5I]
Reply text: Not fulfilled

Inquiry: protein stability index >= 2 for ACAQLATGAACRLVEAVLSGEMLN [V22M] ?
Reply text: Fulfilled

Inquiry: Does ALAQLATGAACRLVEAVLSGEVLN [C2L] have a reported protein stability index of at least 2?
Reply text: Fulfilled

Inquiry: Does ACAQLATGARCRLVEAVLSGEVLN [A10R] have a reported protein stability index of at least 2?
Reply text: Not fulfilled

Inquiry: State whether the measured protein stability index reaches 2, counting equality as reaching it, for ACAQLATGAACRNVEAVLSGEVLN [L13N]
Reply text: Fulfilled
